- TESTED SYSTEM: IDO1 (Homo sapiens)
- Sequence (P14902 whole entry): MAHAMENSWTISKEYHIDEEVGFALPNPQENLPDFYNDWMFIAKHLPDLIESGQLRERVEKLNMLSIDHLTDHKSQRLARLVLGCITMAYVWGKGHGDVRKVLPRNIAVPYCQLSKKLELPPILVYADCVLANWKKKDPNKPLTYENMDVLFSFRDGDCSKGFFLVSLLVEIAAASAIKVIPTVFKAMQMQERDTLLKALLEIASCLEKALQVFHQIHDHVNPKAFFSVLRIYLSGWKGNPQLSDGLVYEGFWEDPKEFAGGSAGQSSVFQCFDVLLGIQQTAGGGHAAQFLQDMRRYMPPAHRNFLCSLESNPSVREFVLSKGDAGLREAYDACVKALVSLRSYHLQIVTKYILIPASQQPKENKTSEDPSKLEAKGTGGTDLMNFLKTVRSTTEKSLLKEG
- ASSAY NOTES: IDO1 Cellular Assay in HeLa Cells Stimulated with IFNγ
- Assay type: cell-based
- EXPERIMENTAL SETUP: read-out: HeLa Cell Potency, IC50
- Method: IDO1 Cellular Assay in HeLa Cells Stimulated with IFNγ HeLa cells were cultured in complete HeLa culture medium (90% EMEM, 10% heat-inactivated fetal bovine serum) and expanded to about 1×10^9 cells. […] Frozen HeLa cells were thawed and transferred into HeLa assay medium (99% complete HeLa culture medium, 1% Pen/Strep) with 20 mL medium/vial of cells. […] The cells were then counted and adjusted to a density of 2×10^5 cells/mL in HeLa assay medium. […]
Reported IC50 is given for each of the following compounds.
Answer format: numeric, nM implied, no suffix.

// below: answered compounds
{"COMPOUND": "Cc1cccc(N2CCN(C(=O)Cn3nc(C(=O)N4CC[C@H](O)[C@@H](F)C4)c4c3CCCC4)CC2)c1C", "MEASURED VALUE": 1.9}
{"COMPOUND": "Cc1cccc(N2CCN(C(=O)Cn3nc(C(=O)N4CCC(O)(CF)CC4)c4c3CCCC4)CC2)c1C", "MEASURED VALUE": 5.53}

For "Cc1cccc(N2CCN(C(=O)Cn3nc(C(=O)N4CCC5(CO)CC4C5)c4c3CCC4)CC2)c1C" on IDO1 (Homo sapiens), measured IC50 was 11.3

For "Cc1cccc(N2CCN(C(=O)Cn3nc(C(=O)N4CCN5CCCC[C@@H]5C4)c4c3C[C@H]3C[C@@H]43)CC2)c1C" on IDO1 (Homo sapiens), measured IC50 was 3.27

For "CC(=O)N(C)C1CCN(C(=O)c2nn(CC(=O)N3CCN(c4cccc(C)c4C)CC3)c3c2[C@@H]2C[C@@H]2C3)CC1" on IDO1 (Homo sapiens), measured IC50 was 0.83

For "Cc1c(C(F)F)cccc1N1CCN(C(=O)Cn2nc(C(=O)N3CCO[C@@H](CO)C3)c3c2C[C@H]2C[C@@H]32)CC1" on IDO1 (Homo sapiens), measured IC50 was 5.66

For "Cc1cccc(N2CCN(C(=O)Cn3nc(C(=O)N4CCN(C(=O)CO)CC4)c4c3C[C@H]3C[C@@H]43)CC2)c1C" on IDO1 (Homo sapiens), measured IC50 was 1.46

For "Cc1cc(Cl)ccc1N1CCN(C(=O)Cn2nc(C(=O)N3C[C@@H](C)O[C@@H](C)C3)c3c2CCC3)CC1" on IDO1 (Homo sapiens), measured IC50 was 34.8

For Cc1c(Cl)cccc1N1CCN(C(=O)Cn2nc(C(=O)N3CC[C@H](O)C(C)C3)c3c2C[C@H]2C[C@@H]32)CC1 (stereo in doubt) on IDO1 (Homo sapiens), measured IC50 was 1.26

For Cc1cccc(N2CCN(C(=O)Cn3nc(C(=O)N4CCC(O)CC4)c4c3CCC4C(F)F)CC2)c1C (single isomer, unassigned) [Example 15] on IDO1 (Homo sapiens), measured IC50 was 19.9
